Provenance of the data: patent US20240209076A1

Exercise: state measured kon for each of the binders provided.
- Measured On: T1, recombinant human IL-6 (human, UniProt P05231 30-212)
- T1 construct: Bought protein
- Assay Explanation: SPR Biacore, supernatant Ab on Protein A chip, IL-6 analyte, 25 C
- Method: Antibodies were captured on a Protein A chip (GE) by injecting 1:20 dilution of cell supernatant at 10 μL/min for 60 seconds. […] The sensor chip was regenerated by a 60 seconds injection of 10 mM Glycine pH 1.7 at flow rate of 50 μL/min. […] For this setup, 1 μg/mL of purified antibody was injected over a Protein A chip at 10 μL/min for 25-28 seconds. Data analysis for supernatant and purified samples were performed using BIAevaluation software (GE). […]
Mention the unit after the number when you answer.

Q: So what does the record say about kon for anti-IL-6 antibody, light chain S55W (heavy chain WT) (antibody, V domains shown, See note of m2; also called WT / S55W) VH: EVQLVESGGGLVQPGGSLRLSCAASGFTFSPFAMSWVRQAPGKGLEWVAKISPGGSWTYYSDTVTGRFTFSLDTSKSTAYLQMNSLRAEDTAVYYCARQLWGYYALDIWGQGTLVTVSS VL: DIQLTQSPSSLSASVGDRVTITCSASISVSYMYWYQQKPGKAPKLLIYDMSNLAWGVPSRFSGSGSGTDFTLTISSLQPEDFATYYCMQWSGYPYTFGQGTKVEIK ?
A: 563000 M⁻¹ s⁻¹

Q: Name the recorded kon for anti-IL-6 antibody, light chain M32V (heavy chain WT) (antibody, V domains shown, See note of m2; also called WT / M32V) VH: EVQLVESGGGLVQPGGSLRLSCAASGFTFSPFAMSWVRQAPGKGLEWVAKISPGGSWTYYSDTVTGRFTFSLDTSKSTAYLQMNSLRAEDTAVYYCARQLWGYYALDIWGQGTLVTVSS VL: DIQLTQSPSSLSASVGDRVTITCSASISVSYVYWYQQKPGKAPKLLIYDMSNLASGVPSRFSGSGSGTDFTLTISSLQPEDFATYYCMQWSGYPYTFGQGTKVEIK .
A: 505000 M⁻¹ s⁻¹

Q: Could you share which kon value was measured for anti-IL-6 antibody, light chain S91A (heavy chain WT) (antibody, V domains shown, See note of m2; also called WT / S91A) VH: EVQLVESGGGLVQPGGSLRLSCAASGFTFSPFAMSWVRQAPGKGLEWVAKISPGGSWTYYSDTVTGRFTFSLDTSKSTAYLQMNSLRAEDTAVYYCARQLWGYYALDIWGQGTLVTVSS VL: DIQLTQSPSSLSASVGDRVTITCSASISVSYMYWYQQKPGKAPKLLIYDMSNLASGVPSRFSGSGSGTDFTLTISSLQPEDFATYYCMQWAGYPYTFGQGTKVEIK ?
A: 341000 M⁻¹ s⁻¹

Q: Item anti-IL-6 antibody, light chain M50D (heavy chain WT) (antibody, V domains shown, See note of m2; also called WT / M50D) VH: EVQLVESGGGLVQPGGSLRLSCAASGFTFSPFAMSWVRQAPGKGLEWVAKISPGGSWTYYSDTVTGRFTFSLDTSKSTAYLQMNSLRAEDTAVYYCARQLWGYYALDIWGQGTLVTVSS VL: DIQLTQSPSSLSASVGDRVTITCSASISVSYMYWYQQKPGKAPKLLIYDDSNLASGVPSRFSGSGSGTDFTLTISSLQPEDFATYYCMQWSGYPYTFGQGTKVEIK has what recorded kon?
A: 806000 M⁻¹ s⁻¹

Q: Would you mind telling me what kon value was observed for anti-IL-6 antibody, light chain M88A (heavy chain WT) (antibody, V domains shown, See note of m2; also called WT / M88A) VH: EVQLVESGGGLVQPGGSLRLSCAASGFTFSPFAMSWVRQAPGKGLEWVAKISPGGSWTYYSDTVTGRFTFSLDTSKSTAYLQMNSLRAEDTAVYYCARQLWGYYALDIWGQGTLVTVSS VL: DIQLTQSPSSLSASVGDRVTITCSASISVSYMYWYQQKPGKAPKLLIYDMSNLASGVPSRFSGSGSGTDFTLTISSLQPEDFATYYCAQWSGYPYTFGQGTKVEIK ?
A: 451000 M⁻¹ s⁻¹
